All values here come from patent US20260234242A1.

# tested_system: T1, human CDH6 on tumor cells (OVCAR3 cells, PA-1 cells) (human, UniProt P55285 54-790)
# T1 sequence: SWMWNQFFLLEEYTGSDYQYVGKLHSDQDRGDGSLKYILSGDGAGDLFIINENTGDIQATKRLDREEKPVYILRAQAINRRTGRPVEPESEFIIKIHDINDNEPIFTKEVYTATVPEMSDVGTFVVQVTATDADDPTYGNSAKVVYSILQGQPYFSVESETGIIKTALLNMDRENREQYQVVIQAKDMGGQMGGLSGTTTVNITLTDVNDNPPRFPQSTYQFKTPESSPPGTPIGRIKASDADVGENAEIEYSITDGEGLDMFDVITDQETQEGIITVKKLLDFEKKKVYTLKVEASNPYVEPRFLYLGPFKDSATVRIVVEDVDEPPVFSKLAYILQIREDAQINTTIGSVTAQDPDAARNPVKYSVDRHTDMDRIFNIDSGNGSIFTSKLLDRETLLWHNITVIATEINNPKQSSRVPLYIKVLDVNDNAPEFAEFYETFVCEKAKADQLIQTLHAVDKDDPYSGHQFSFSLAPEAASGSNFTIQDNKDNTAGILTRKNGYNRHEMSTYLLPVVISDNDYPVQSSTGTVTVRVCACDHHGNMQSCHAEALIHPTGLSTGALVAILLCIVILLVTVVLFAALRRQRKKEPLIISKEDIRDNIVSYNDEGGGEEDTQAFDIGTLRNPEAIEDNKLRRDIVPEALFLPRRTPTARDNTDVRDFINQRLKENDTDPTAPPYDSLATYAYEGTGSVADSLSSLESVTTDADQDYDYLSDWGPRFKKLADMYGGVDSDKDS
# procedure_text: FACS, PA-1 cells
quantity_name: EC50 (nM)
Record the value in nM, omitting the unit from your answer.

GET /value?item= hCDH6-14-H2L3 (antibody, V domains shown, Humanized) VH: EIQLVQSGAEVKKPGASVKVSCKASGYTFTDNYINWVRQAPGQRLEWMGWIYPGTGNSYYNEKFKGRVTITVDTSASTAYMELSSLRSEDTAVYYCASSYGDSFDYWGQGTTVTVSS VL: DIVMTQSPDSLAVSLGERATINCRASQDIRNYLNWYQQKPGQTPKLLISYTSRLHSGVPDRFSGSGSGTDFTLTISSLQAEDVAVYYCQQYSQLPWTFGGGTKVEIK &field=EC50 returns 0.22

GET /value?item= hCDH6-14-H1L3 (antibody, V domains shown, Humanized) VH: EVQLVQSGAEVKKPGASVKVSCKASGYTFTDNYINWVRQAPGQRLEWMGWIYPGTGNSYYNEKFKGRVTITVDTSASTAYMELSSLRSEDTAVYYCASSYGDSFDYWGQGTTVTVSS VL: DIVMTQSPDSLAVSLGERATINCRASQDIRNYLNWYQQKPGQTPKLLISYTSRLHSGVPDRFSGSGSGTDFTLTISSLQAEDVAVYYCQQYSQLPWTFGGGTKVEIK &field=EC50 returns 0.27
